# System: U2OS
# assay.notes: Multiplex assay against U2OS
# Format: toxicity, cell-based
# assay.conditions: human, 24 h, 1 µM, compound concentration 1 uM, replicate 2
Each entry below carries its recorded Population Mitotic Cells (%).
Just the number in %, nothing appended.

Completed entries (count: 10):
>>> df
                                   compound  val
0  Nc1ccc(C(=O)Nc2cccc(-c3nc(N4CCOCC4)c4oc5ncccc5c4n3)c2)cn1   78
1  CC(C)N1CCC(C)(C)c2cc(C#Cc3ccc(C(=O)O)cc3)ccc21   50
2  O=C(O)c1ccc2cc(-c3ccc(O)c(C45CC6CC(CC(C6)C4)C5)c3)ccc2c1    0
3  Nc1nc2c(c(N3CCNCC3)n1)CCC1=C2[C@@H]2CCCC[C@@H]2O1   80
4  N#Cc1cnc(Nc2cc(NC[C@H]3CNCCO3)c(C(F)(F)F)cn2)cn1  100
5  COc1ccc(NS(=O)(=O)c2sc3ccc(Cl)cc3c2C)cc1N1CCNCC1.Cl   66
6  CCn1c(-c2nonc2N)nc2cnc(Oc3cccc(NC(=O)c4ccc(OCCN5CCOCC5)cc4)c3)cc21 [GSK-269962A]   25
7  CCOc1cc2ncc(C#N)c(Nc3ccc(OCc4cccc(F)c4)c(Cl)c3)c2cc1NC(=O)/C=C/CN(C)C   54
8  CNC(=O)c1cc(Oc2ccc(NC(=O)Nc3cc(C(C)(C)C)nn3-c3ccc4ncccc4c3)c(F)c2)ccn1   55
9  Cl.Cl.Nc1ncnc2c1c(-c1cccc(OCc3ccccc3)c1)cn2[C@H]1C[C@@H](CN2CCC2)C1   71

Lab book: Population Mitotic Cells (%) of CCCn1c(=O)c2[nH]c(C34CC5CC(CC3C5)C4)nc2n(CCC)c1=O noted as 60

Item: CCc1cc2c(cc1CC)CC(NC[C@H](O)c1ccc(O)c3[nH]c(=O)ccc13)C2 | Population Mitotic Cells (%): 85

Measured Population Mitotic Cells (%), CCOc1cc(N2CCC(O)CC2)ccc1Nc1ncc2c(n1)N(C1CCCC1)CCC(=O)N2C : 40

Measured Population Mitotic Cells (%) of CC(C)(C)c1cnc(CSc2cnc(NC(=O)C3CCNCC3)s2)o1 : 44

Sample CNC(=O)c1nn(C)c2c1C(C)(C)Cc1cnc(Nc3ccc(N4CCN(C)CC4)cc3)nc1-2 ; Population Mitotic Cells (%) observed: 13

Input Cl.Cl.NC1(c2ccc(-c3nc4ccn5c(=O)[nH]nc5c4cc3-c3ccccc3)cc2)CCC1 . Output Population Mitotic Cells (%): 83

Entry CC(=O)c1cc(-c2cc(C(=O)NC3CC3)ccc2C)c2ncccn12 , Population Mitotic Cells (%) reported as 100

----------
# Population Tubulin-Different-Phenotype (%) per entry
# Tested on: Fibroblast
# assay.notes: Multiplex assay against human fibroblast
# Type: toxicity, cell-based
# assay.conditions: 24 h, 10 µM, compound concentration 10 uM, replicate 2
Reply numerically in %, unit not repeated.

                                   molecule  tested_system  unit_info  val
0  CCCn1c(=O)c2[nH]c(C34CC5CC(CC3C5)C4)nc2n(CCC)c1=O     Fibroblast          %  100
1  Cc1cc2c(cc1N1C(=O)c3cccc4c(CCCO)ccc(c34)C1=O)n(C)c(=O)n2C     Fibroblast          %   76
2  c1ccc2oc(-c3csc(C4CCN(Cc5nc6ncccc6[nH]5)CC4)n3)cc2c1     Fibroblast          %    0
3  CC(=O)c1cc(-c2cc(C(=O)NC3CC3)ccc2C)c2ncccn12     Fibroblast          %   18
4  Cc1nc(Cc2cccc(C(F)(F)F)c2)sc1-c1ccc(C(N)=O)nc1 [TP-024n]     Fibroblast          %   22
5  COc1cc2c(Nc3ccc(NC(=O)c4ccccc4)cc3)ncnc2cc1OCCCN1CCOCC1     Fibroblast          %   15

Attention now shifts to the item below.
Record CCOc1cc2ncc(C#N)c(Nc3ccc(OCc4cccc(F)c4)c(Cl)c3)c2cc1NC(=O)/C=C/CN(C)C , field Population Tubulin-Different-Phenotype (%): 66

----------
# System: Fibroblast
# assay.notes: Incucyte cell viability with human fibroblast; note: filed as whole numbers so only -1 and 0 and 1 occur
# Format: toxicity, cell-based
# assay.conditions: 0 h, 10 µM, compound concentration 10 uM, replicate number 1, timepoint 0 hours
Measured Growth Rate, listed per entry for reference.
Lab note: write the figure by itself, no unit.

molecule	tested.system	Growth Rate
O=C(Nc1cccnc1)c1cc(-c2ccnc(F)c2)ccc1OCc1ccccc1	Fibroblast	0
CNc1cc2[nH]c(=O)n(-c3ccc(NC(=O)NS(=O)(=O)c4ccc(Cl)s4)cc3)c(=O)c2cc1F	Fibroblast	0
FC(F)(F)c1c(N2CCC(c3ccccc3)CC2)ccn2c(CC3CC3)nnc12	Fibroblast	0
CCC(=O)O[C@]1(C(=O)SCF)[C@H](C)C[C@H]2[C@@H]3C[C@H](F)C4=CC(=O)C=C[C@]4(C)[C@@]3(F)[C@@H](O)C[C@@]21C [FLUTICASONE PROPIONATE]	Fibroblast	0

Per the records, this molecule ( COc1cc2c(cc1-c1c(C)noc1C)ncc1[nH]c(=O)n([C@H](C)c3ccccn3)c12 ) has Growth Rate equal to 0

The molecule listed as COc1cccc(CNC(=O)c2nc3scc(CN(C)Cc4ccccc4)c3c(=O)[nH]2)c1 [T-26f] shows Growth Rate equal to 0

Briefly, Growth Rate measured for C=CCN1C[C@H](C)N([C@H](c2ccc(C(=O)N(CC)CC)cc2)c2cccc(O)c2)C[C@H]1C : 0

Field Growth Rate (entry Cc1cc(C)c(N)c(C#Cc2cccc(F)c2)n1.Cl ) reads 0

Query CO[C@@H]1COCC[C@@H]1N[C@@H]1CC[C@@](C(=O)N2CCc3ncc(C(F)(F)F)cc3C2)(C(C)C)C1 yields Growth Rate of 0

Please fill in: Growth Rate reported for CC(=O)[C@@]1(O)CC[C@H]2[C@@H]3C[C@H](C)C4=CC(=O)CC[C@]4(C)[C@H]3CC[C@@]21C = 1

Given item CC1(C)CNc2cc(NC(=O)c3cccnc3NCc3ccncc3)ccc21.O=P(O)(O)O.O=P(O)(O)O [MOTESANIB DIPHOSPHATE] , the value recorded as its Growth Rate is 0

Value of measured Growth Rate for the entry Cc1nc(C#Cc2ccnc(Cl)c2)c(C)n1-c1ccc(OC(F)(F)F)cc1 : 1

Lab note: measured Growth Rate of COc1ccc(COc2ccc(Cc3cnc(N)nc3N)cc2OC)cc1 [GW632580X] was 1

Reported Growth Rate for CCC1(C2=NCCN2)Cc2ccccc2O1 (stereo unspecified) was 0

Item: Nc1nc(NCCc2ccc(O)cc2)nc2nc(-c3ccco3)nn12 | Growth Rate: 0

Growth Rate reported for this molecule CO[C@H]1/C=C/O[C@@]2(C)Oc3c(C)c(O)c4c(O)c(c(/C=N/N5CCN(C)CC5)c(O)c4c3C2=O)NC(=O)/C(C)=C\C=C\[C@H](C)[C@H](O)[C@@H](C)[C@@H](O)[C@@H](C)[C@H](OC(C)=O)[C@@H]1C : 0

----------
Measured Population Fragmented Nuclei (%) by item
# System: U2OS
# assay.notes: Multiplex assay against U2OS
# Type: toxicity, cell-based
# assay.conditions: human, 24 h, 1 µM, compound concentration 1 uM, replicate 1
Enter your answer as a number in %; do not include the unit.

These recorded examples may help you get a feel for the data.
compound	tested.system	unit.info	val
N#Cc1cnc(Nc2cc(NC[C@H]3CNCCO3)c(C(F)(F)F)cn2)cn1	U2OS	%	0
CN(C)C/C=C/C(=O)Nc1cc2c(Nc3ccc(F)c(Cl)c3)ncnc2cc1O[C@H]1CCOC1.O=C(O)/C=C\C(=O)O.O=C(O)/C=C\C(=O)O [AFATINIB DIMALEATE]	U2OS	%	6
c1ccc2oc(-c3csc(C4CCN(Cc5nc6ncccc6[nH]5)CC4)n3)cc2c1	U2OS	%	2

Field Population Fragmented Nuclei (%) (entry Nc1ccc(C(=O)Nc2cccc(-c3nc(N4CCOCC4)c4oc5ncccc5c4n3)c2)cn1 ) reads 16

Population Fragmented Nuclei (%) recorded for this compound, Cl.Cl.Nc1ncnc2c1c(-c1cccc(OCc3ccccc3)c1)cn2[C@H]1C[C@@H](CN2CCC2)C1 , is 10

Population Fragmented Nuclei (%) for CC(C)(C)c1cnc(CSc2cnc(NC(=O)C3CCNCC3)s2)o1 is 13

In plain terms, Cc1cc2c(cc1N1C(=O)c3cccc4c(CCCO)ccc(c34)C1=O)n(C)c(=O)n2C has a documented Population Fragmented Nuclei (%) of 11

// sample Cl.Cl.NC1(c2ccc(-c3nc4ccn5c(=O)[nH]nc5c4cc3-c3ccccc3)cc2)CCC1 , its Population Fragmented Nuclei (%) was 9

Recorded result, CCCn1c(=O)c2[nH]c(C34CC5CC(CC3C5)C4)nc2n(CCC)c1=O , Population Fragmented Nuclei (%): 9

For reference, reported Population Fragmented Nuclei (%) for CC(C)Oc1ccc(C(=O)N[C@H](CNC(=O)CN(C)C)Cc2ccc(-c3cn4cccc([C@H](C)O)c4n3)cc2)cc1Cl [GSK-923295A] stands at 18

Consider CNc1oc(-c2cccc3ccccc23)nc1C#N . Its measured Population Fragmented Nuclei (%) is 18

// Population Fragmented Nuclei (%) value for COc1cc2c(NC3CCN(C(C)C)CC3)nc(N3CCC(F)(F)CC3)nc2cc1OCCCN1CCCC1 : 9

Recorded result, CCOc1cc2ncc(C#N)c(Nc3ccc(OCc4cccc(F)c4)c(Cl)c3)c2cc1NC(=O)/C=C/CN(C)C , Population Fragmented Nuclei (%): 7

Recorded result, O=C(O)c1ccc2cc(-c3ccc(O)c(C45CC6CC(CC(C6)C4)C5)c3)ccc2c1 , Population Fragmented Nuclei (%): 15

Lab note: measured Population Fragmented Nuclei (%) of CCC(=O)O[C@]1(C(=O)SCF)[C@H](C)C[C@H]2[C@@H]3C[C@H](F)C4=CC(=O)C=C[C@]4(C)[C@@]3(F)[C@@H](O)C[C@@]21C [FLUTICASONE PROPIONATE] was 4

// Population Fragmented Nuclei (%) value for Nc1nc2c(c(N3CCNCC3)n1)CCC1=C2[C@@H]2CCCC[C@@H]2O1 : 15
